Target: wild-type EGFR (Homo sapiens)
Sequence (P00533 25-1210): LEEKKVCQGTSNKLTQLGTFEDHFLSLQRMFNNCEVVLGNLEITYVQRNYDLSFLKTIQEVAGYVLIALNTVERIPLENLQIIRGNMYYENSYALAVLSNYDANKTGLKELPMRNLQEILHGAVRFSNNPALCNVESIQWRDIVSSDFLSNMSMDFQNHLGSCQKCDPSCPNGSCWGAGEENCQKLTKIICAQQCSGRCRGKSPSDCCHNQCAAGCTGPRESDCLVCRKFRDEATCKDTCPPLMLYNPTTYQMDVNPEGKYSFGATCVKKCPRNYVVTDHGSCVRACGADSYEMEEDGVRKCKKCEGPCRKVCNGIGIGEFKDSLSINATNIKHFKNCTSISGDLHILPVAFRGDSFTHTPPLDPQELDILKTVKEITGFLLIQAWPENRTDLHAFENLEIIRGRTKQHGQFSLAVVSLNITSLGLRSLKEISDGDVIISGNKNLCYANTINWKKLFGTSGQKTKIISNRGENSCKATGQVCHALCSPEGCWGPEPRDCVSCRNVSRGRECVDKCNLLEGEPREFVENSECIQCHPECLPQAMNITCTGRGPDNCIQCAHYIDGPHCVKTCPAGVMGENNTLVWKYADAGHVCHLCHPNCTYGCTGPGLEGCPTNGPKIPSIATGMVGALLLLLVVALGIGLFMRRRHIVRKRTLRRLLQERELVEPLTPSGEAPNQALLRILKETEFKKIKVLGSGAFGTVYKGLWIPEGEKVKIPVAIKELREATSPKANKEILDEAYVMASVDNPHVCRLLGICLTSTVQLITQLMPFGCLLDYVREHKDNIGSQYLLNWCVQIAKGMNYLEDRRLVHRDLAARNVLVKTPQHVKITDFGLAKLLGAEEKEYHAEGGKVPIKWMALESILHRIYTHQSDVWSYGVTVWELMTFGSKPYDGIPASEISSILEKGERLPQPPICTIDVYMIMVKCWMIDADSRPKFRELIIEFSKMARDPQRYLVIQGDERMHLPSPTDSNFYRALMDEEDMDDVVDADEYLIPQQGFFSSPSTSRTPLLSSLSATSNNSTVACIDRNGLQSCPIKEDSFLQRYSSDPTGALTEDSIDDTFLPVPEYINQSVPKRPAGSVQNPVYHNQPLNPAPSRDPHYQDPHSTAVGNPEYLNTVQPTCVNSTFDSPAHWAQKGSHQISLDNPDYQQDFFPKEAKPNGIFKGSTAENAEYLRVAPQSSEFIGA
Experiment: EGFR kinase assay (ELISA)
Details: concentration 3 nM; one value per replicate column; 0.003 µM
Measured Inhibition values are reported for all entries that follow.
Give the figure only, with no unit attached.

| compound.smiles | result.number |
| --- | --- |
| CCOc1cccc(-n2cc(-c3cccc(Nc4ncnc5cc(OCCOC)c(OCCOC)cc45)c3)nn2)c1 | 6.684 |
| COCCOc1cc2ncnc(Nc3cccc(-c4cn(-c5ccccc5OC)nn4)c3)c2cc1OCCOC | 4.357 |
| COCCOc1cc2ncnc(Nc3cccc(-c4cn(-c5ccc(C)cc5)nn4)c3)c2cc1OCCOC | 16.0714 |

Query: Requested read-out: Inhibition. Entry: COCCOc1cc2ncnc(Nc3cccc(-c4cn(Cc5ccccc5Br)nn4)c3)c2cc1OCCOC
Result: 17.0507
